Test system: SK-MEL-5 melanoma
Assay: NCI-60 one-dose screen, 48 h
Conditions: 10 µM unless noted
Method: Growth inhibition of the SK-MEL-5 human tumor cell line is measured as a screen for anti-cancer activity. Cells are grown in 96 well plates and exposed to the test compound for 48 hours. Compounds are tested at a single concentration, which is 10^-5 M for most compounds. The reported endpoint is percent growth (GI% or GIPRCNT), where numbers from 0 - 100% represent growth inhibition, and numbers from -100% - 0 represent cell death. For example, a value of 40 represents 60% growth inhibition. […]
The panel holds about 83,000 compounds, 20% with a hit somewhere; the sample as a whole holds those more often. Calls of active or inactive are those of the source. How the source made its calls: active means growth percent below 10; inactive means the rest.
// allowed return values: active, inactive

These solved cases illustrate the format of a correct answer.
Cc1ccc(-n2cc(/C=C/C(=O)c3ccc(O)cc3)c(-c3ccc(S(C)(=O)=O)cc3)n2)cc1 ... inactive
CNC(=O)c1cc(-n2ccc3cc(NC(=O)Nc4ccc(N5CCOCC5)c(C(F)(F)F)c4)ccc32)ccn1 ... active
CNC(=O)c1cc(-c2ccc(NC(=S)Nc3cc(C(F)(F)F)cc(C(F)(F)F)c3)cc2)nc2cccnc12 ... inactive
Cn1ccnc1C(=O)/C=C/c1ccc(NC(=O)c2c(F)c(F)c(F)c(F)c2F)cc1 ... inactive
NC(N)=Nc1ccc(Oc2cccc(NC(N)=Nc3ccc(I)cc3F)c2)cc1 ... inactive

Enquiry: Just curious, what result did Cn1ccnc1C(=O)/C=C/c1ccc(CNC(=O)c2ccc(S(F)(F)(F)(F)F)cc2)cc1 get here?
Return: inactive

Enquiry: Just curious, what result did O=C1C(c2ccccc2)=C(N2CCc3ccccc32)OC1(Cl)Cl get here?
Return: inactive

Enquiry: Just curious, what result did CS(=O)(=O)Nc1cc(-c2ccc3ncc(C#N)c(NCc4ccccc4)c3c2)cnc1Cl get here?
Return: active

Enquiry: Just curious, what result did COc1ccc([C@@H]2c3[nH]c4ccccc4c3C[C@H]3C(=O)N(C4CCN(CC5CCCCC5)CC4)CC(=O)N23)c(OC)c1 get here?
Return: inactive
